// data source = the supplement of paper PMC10567573

Exercise: for every item that follows, state its recorded protein stability index.
B1: CLINT1 (parent)
chain: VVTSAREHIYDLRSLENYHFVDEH

variants of: B1; experiment: protein stability index of a GFP-peptide fusion (GPS, HEK-293T) (PSI 1-6); higher = more stable; details: c terminus: a fixed tail appended;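 also: lentivirally expressed fusions sorted by FACS into six bins by GFP to DsRed ratio, PSI derived from sequencing read proportions per bin multiplied by bin number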
Numbers only.

Reference set, count: 3
V1A ... 3.89
D22V ... 2.3
R6D ... 3.63

Below is a list of variants. For each, state its recorded protein stability index.
1. Y10M
2. V21H
3. L12R
4. E23R
5. D22R
6. Y18S

[3.01, 2.98, 3.6, 1.72, 2.38, 4.05]

For every item below, please supply its protein stability index.
1. S4E
2. Y10W
3. H19M

[3.04, 2.06, 2.4]

# per-item lookup of protein stability index; items listed below
1. T3N
2. V2C
3. A5W
4. E16M
5. L12H
6. S14F
7. D22L
8. Y10V

[2.8, 2.9, 2.16, 3.01, 3.32, 2.57, 1.57, 2.67]
